Reference for the values: patent US20130225543A1

# SUBJECT_OF_TEST: HDAC2 (Homo sapiens, UniProt Q92769)
# Sequence (Q92769 whole entry): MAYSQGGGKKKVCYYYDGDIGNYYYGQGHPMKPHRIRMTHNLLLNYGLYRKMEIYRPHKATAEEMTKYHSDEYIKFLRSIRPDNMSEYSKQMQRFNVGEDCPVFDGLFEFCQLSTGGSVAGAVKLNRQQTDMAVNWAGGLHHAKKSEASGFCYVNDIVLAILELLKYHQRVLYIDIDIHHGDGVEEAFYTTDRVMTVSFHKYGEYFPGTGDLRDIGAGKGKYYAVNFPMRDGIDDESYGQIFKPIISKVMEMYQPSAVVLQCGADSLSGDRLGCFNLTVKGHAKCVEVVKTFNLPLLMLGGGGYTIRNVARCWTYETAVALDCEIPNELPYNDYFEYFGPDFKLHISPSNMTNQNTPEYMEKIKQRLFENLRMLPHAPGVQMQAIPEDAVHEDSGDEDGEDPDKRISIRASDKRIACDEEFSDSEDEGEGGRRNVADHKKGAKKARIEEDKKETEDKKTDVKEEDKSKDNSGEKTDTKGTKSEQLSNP
# METHOD_NOTES: Kinetic HDAC enzyme inhibition assay, HDAC2
# CONDITIONS_USED: recombinant HDAC
Field: pIC50. Provide a value for each of the molecules that follow.
The value called pIC50 is obtained by taking minus log10 of the concentration in mol/L.

Query :: Please tell me: pIC50 of "Cc1ccccc1N(c1ccccc1)c1ncc(C(=O)NCCCCCCC(=O)NO)cn1" , system HDAC2 (Homo sapiens, UniProt Q92769)?
Result :: 6.88

Query :: Also "O=C(CCCCCCNC(=O)c1ccc(C(O)(c2ccccn2)c2ccccn2)cc1)NO" ?
Result :: 7.02

Query :: Also "COC(c1ccc(F)cc1)(c1ccc(F)cc1)c1ccc(C(=O)NCCCCCCC(=O)NO)cc1" ?
Result :: 6.35

###

# SUBJECT_OF_TEST: HDAC7 (Homo sapiens, UniProt Q8WUI4)
# Sequence (Q8WUI4 whole entry): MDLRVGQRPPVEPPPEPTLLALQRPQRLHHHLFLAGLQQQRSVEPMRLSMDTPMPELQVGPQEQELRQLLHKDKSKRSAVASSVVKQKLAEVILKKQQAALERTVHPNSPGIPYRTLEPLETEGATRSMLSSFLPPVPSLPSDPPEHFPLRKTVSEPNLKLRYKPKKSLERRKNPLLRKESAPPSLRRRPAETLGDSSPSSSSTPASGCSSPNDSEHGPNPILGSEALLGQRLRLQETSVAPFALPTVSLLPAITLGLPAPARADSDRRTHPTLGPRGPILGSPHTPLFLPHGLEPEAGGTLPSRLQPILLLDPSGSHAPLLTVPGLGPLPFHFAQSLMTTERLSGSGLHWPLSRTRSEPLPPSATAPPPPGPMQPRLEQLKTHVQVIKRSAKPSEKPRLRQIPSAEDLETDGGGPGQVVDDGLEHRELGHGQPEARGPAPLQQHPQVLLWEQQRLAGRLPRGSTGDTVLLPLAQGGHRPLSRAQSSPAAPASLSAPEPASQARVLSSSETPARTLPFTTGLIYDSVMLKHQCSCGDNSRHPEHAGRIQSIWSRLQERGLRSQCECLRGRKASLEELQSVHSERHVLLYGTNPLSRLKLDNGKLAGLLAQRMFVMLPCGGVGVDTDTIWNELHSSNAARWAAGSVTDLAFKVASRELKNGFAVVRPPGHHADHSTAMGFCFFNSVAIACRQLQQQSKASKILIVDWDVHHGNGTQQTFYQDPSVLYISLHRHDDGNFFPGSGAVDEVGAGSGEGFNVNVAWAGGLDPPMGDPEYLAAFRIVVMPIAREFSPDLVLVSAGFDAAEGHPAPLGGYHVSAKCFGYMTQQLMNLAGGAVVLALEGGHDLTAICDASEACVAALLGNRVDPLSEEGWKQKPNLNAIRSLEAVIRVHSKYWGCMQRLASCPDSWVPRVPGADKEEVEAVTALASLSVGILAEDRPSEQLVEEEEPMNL
# METHOD_NOTES: Kinetic HDAC enzyme inhibition assay, HDAC7
# CONDITIONS_USED: recombinant HDAC
Field: IC50. Provide a value for each of the molecules that follow.

Query :: Any idea what its IC50 is? The molecule is O=C(NO)c1cnc(NC2(c3ccccc3)CC2)nc1 [ACY-738]
Result :: 1.6 µM

Query :: Also O=C(CCCCCCNC(=O)c1ccc(C(O)(c2ccccn2)c2ccccn2)cc1)NO [ACY-251] ?
Result :: > 10 µM

Query :: Also COC(c1ccc(F)cc1)(c1ccc(F)cc1)c1ccc(C(=O)NCCCCCCC(=O)NO)cc1 [ACY-257] ?
Result :: > 10 µM

Query :: Also Cc1ccccc1N(c1ccccc1)c1ncc(C(=O)NCCCCCCC(=O)NO)cn1 [ACY-216] ?
Result :: > 10 µM
